# maps each entry to its half-life
Assay Name: Half life in rat ventral prostate at 3 mg/kg, po
Format: ADME, organism-based, Prostate gland
Design: dose 3 mg/kg, route oral
Just the number please, in h, no unit attached.

{"Compound": "CC(O)(CS(=O)(=O)c1ccc(F)cc1)C(=O)Nc1ccc(C#N)c(C(F)(F)F)c1 (configuration not stated) [BICALUTAMIDE]", "Output Unit": "h", "half-life": 23.4}

Let us examine a further case.
Problem: Value lookup for half-life; key = C[C@@H]1CN(c2ccc(C#N)c(C(F)(F)F)c2)[C@@H](C)CN1C(=O)Nc1ccc(C(F)(F)F)nc1 (racemic)
Result: 11.2
